# subjectOfTest: recombinant human Nav1.8 (Homo sapiens (Human))
# Sequence (Q9Y5Y9 whole entry): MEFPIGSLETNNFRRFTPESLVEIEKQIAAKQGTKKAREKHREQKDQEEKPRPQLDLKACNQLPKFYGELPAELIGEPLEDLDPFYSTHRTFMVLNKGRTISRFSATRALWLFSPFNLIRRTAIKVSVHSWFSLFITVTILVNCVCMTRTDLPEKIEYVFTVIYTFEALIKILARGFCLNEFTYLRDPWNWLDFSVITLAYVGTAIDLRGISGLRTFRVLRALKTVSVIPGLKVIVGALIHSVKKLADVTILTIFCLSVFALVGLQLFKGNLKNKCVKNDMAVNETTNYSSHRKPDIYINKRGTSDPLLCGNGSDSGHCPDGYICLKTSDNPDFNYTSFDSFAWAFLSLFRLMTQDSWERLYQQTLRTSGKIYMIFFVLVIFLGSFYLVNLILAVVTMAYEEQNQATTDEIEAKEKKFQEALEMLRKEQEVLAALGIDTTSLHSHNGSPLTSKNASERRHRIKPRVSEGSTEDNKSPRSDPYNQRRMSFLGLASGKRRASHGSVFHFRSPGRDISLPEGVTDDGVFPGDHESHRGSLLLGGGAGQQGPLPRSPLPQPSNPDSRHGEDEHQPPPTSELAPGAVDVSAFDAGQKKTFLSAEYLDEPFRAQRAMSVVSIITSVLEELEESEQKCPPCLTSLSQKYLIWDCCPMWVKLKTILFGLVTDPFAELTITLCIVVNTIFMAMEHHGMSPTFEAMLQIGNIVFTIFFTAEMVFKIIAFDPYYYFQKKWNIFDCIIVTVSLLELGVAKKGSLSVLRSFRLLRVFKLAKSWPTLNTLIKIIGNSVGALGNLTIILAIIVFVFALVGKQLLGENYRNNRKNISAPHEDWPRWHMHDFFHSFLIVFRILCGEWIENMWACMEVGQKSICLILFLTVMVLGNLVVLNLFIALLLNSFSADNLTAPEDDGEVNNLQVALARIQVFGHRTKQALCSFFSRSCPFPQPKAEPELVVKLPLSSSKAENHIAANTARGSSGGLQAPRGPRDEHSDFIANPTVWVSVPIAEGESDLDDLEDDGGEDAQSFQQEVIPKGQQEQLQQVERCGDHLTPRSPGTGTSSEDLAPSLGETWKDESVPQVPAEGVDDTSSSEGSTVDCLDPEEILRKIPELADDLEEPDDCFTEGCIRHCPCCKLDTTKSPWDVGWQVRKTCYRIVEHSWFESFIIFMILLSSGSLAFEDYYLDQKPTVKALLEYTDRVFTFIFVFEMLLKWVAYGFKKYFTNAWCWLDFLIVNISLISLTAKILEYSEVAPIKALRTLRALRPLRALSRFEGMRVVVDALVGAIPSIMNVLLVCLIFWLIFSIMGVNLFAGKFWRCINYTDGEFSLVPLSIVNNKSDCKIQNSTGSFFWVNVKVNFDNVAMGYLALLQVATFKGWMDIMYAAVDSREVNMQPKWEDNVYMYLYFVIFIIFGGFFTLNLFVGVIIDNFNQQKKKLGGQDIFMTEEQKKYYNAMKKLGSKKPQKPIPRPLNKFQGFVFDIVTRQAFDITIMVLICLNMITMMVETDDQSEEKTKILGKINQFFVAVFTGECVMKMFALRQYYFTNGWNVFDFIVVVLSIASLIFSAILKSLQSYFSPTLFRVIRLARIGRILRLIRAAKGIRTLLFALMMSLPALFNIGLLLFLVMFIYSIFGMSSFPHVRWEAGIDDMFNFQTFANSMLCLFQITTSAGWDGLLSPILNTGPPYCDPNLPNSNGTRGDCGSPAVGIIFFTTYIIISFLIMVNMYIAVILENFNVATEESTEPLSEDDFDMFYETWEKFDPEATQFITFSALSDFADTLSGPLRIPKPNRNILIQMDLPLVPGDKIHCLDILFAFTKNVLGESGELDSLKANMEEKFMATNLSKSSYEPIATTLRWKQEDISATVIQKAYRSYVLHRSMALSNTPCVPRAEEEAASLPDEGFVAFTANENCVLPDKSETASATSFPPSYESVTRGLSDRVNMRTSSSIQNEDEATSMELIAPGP
# assayComment: FRET-based membrane potential assay, recombinant human sodium channel Nav1.8
# Assay type: cell-based
# setupConditions: HEK293 cells stably expressing recombinant human Nav1.8; veratridine + scorpion venom depolarization
measurementType: log10(IC50) (log10 of the value in nM)
Please keep in mind that the values are log10 of IC50 expressed in nM.

Your task in this section: give log10(IC50) for each listed record.
1. O=C(c1ccc2cc(Oc3ccc(C(F)(F)F)cn3)ccc2n1)N1CCNCC1C(F)F (single isomer, unassigned) [Example 72]
2. O=C(c1ccc2cc(Oc3ccc(C(F)(F)F)cn3)ccc2n1)N1CCN(C2CCC2)CC1

**Result**
3.58
2.52

====

# subjectOfTest: recombinant human Nav1.7 (Homo sapiens (Human))
# assayComment: FRET-based membrane potential assay, recombinant human sodium channel Nav1.7
# Format: cell-based
# setupConditions: HEK293 cells stably expressing recombinant human Nav1.7; veratridine + scorpion venom depolarization; read-out: FRET-Membrane Potential Nav1.7 IC50
# Description: FRET-Based Membrane Potential Assays. Recombinant, Human Sodium Channel, Nav1.7. On the day of the assay, medium was removed by aspiration, and cells were washed with assay buffer [HBSS (Invitrogen, Carlsbad, Calif.) containing 20 mM HEPES (Invitrogen, Carlsbad, Calif.)]. […] Cells were incubated for 40 minutes at room temperature in the dark. […] Fluorescence readings were made using a FLIPR®^TETRA (Molecular Devices, Sunnyvale Calif.) equipped with voltage-sensor probe optics. […]
measurementType: pIC50
One number for each entry, as −log10 of the molar value.

Known pIC50 results, listed for orientation:
N#Cc1ccc(Oc2ccc3nc(C(=O)N[C@H]4CCC[C@H](O)C4)ccc3c2)cc1
5.57
O=C(NC1CC(F)(F)C1)c1ccc2cc(Oc3ccc(C(F)(F)F)nc3)ccc2n1
5.57

As a next step, examine the compound that follows.
**Query** Fill in: pIC50 on recombinant human Nav1.7 (Homo sapiens (Human)), entry COC[C@H]1CN(C(=O)c2ccc3cc(Oc4ccc(C(F)F)cn4)ccc3n2)CCN1
**Result** 5.74

====

Consider the following compounds; for each one, report its pIC50.
# subjectOfTest: recombinant human Nav1.7 (Homo sapiens (Human))
# assayComment: FRET-based membrane potential assay, recombinant human sodium channel Nav1.7
# Format: cell-based
# setupConditions: HEK293 cells stably expressing recombinant human Nav1.7; veratridine + scorpion venom depolarization; read-out: FRET-Membrane Potential Nav1.7 IC50
Answers are plain numbers, as −log10 of the molar value.

Known pIC50 results, listed for orientation:
O=C(c1ccc2cc(Oc3ccc(C(F)(F)F)cn3)ccc2n1)N1CCNC[C@H]1CO [Example 234]
5.54
O=C(NC1CCC(F)(F)C1)c1ccc2cc(Oc3ccc(C(F)(F)F)cn3)ccc2n1 (stereo not drawn) [Example 485]
5.50

As a next step, examine the compound that follows.
**Query** Give reported pIC50 value for COCCn1cc(S(=O)(=O)N2CCN(C(=O)c3ccc4cc(Oc5ccc(C(F)(F)F)cn5)ccc4n3)CC2)cn1 [Example 384]
**Result** 5.71

====

Consider the following compounds; for each one, report its IC50.
# subjectOfTest: recombinant human Nav1.7 (Homo sapiens (Human), UniProt Q15858)
# Sequence (Q15858 whole entry): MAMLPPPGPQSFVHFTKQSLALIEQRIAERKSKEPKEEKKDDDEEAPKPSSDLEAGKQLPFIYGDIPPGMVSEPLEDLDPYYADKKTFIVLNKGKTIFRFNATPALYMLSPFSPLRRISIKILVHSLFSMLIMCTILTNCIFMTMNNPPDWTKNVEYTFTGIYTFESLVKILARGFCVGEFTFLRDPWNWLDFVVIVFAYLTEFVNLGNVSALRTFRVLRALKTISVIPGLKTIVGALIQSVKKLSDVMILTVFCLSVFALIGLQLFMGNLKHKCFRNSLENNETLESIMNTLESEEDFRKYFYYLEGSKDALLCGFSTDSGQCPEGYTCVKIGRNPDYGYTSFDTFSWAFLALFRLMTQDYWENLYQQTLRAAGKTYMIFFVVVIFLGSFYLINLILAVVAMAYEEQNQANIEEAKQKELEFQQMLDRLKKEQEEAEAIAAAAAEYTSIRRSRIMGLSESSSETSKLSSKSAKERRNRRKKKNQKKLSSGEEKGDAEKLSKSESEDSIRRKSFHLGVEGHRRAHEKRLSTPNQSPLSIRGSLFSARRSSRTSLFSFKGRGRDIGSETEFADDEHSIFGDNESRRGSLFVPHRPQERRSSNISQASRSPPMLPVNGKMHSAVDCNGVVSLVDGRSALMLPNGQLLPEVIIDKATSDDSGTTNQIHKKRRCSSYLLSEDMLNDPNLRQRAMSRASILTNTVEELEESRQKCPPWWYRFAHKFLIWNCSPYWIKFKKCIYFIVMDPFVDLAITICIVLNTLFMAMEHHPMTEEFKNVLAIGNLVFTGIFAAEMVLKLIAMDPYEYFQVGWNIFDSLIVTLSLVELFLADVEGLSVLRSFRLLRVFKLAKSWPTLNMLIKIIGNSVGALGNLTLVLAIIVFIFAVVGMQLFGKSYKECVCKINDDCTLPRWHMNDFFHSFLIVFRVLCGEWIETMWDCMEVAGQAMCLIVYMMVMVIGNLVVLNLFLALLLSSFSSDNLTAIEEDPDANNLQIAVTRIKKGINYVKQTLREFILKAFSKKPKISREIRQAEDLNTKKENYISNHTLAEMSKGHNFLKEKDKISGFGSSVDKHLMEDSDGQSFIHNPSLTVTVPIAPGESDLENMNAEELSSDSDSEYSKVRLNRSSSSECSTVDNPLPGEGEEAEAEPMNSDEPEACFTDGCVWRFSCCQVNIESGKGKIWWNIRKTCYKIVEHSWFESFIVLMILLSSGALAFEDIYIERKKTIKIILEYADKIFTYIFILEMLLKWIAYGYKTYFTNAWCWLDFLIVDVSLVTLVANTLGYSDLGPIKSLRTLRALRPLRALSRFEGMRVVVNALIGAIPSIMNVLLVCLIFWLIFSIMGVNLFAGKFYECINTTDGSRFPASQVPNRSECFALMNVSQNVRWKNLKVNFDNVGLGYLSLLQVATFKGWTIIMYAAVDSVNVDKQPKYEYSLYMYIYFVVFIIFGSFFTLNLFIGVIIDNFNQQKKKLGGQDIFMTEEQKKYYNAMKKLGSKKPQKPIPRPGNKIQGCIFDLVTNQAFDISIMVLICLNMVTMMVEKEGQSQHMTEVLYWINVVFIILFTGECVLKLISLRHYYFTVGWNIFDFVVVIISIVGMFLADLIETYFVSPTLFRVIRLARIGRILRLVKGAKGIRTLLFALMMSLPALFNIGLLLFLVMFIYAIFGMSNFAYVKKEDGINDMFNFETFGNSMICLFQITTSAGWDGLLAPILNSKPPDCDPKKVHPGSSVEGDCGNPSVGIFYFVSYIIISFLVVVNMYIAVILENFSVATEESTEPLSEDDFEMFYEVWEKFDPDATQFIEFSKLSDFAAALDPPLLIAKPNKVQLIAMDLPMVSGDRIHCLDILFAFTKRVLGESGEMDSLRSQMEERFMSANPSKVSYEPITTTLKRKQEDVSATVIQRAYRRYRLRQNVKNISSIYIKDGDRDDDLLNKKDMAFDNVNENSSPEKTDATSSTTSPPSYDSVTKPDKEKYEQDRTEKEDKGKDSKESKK
# assayComment: FRET-based membrane potential assay, recombinant human sodium channel Nav1.7
# Type: cell-based
# setupConditions: HEK293 cells stably expressing recombinant human Nav1.7; veratridine + scorpion venom depolarization; read-out: FRET-Membrane Potential Nav1.7 IC50

Known IC50 results, listed for orientation:
O=C(c1ccc2cc(Oc3ccc(C(F)(F)F)cn3)ccc2n1)N1CCN(C(=O)N2CCOCC2)CC1
> 20000 nM
O=C(c1ccc2cc(Oc3ccccn3)ccc2n1)N1CCOCC1
> 20000 nM

Your task in this section: give IC50 for each listed record.
1. Cc1ccnc(Oc2ccc3nc(C(=O)NC4CCS(=O)(=O)C4)ccc3c2)n1 (stereo not drawn)
2. N#Cc1cnc(Oc2ccc3nc(C(=O)N4CCNCC4)ccc3c2)cn1
3. N#Cc1ccc(Oc2ccc3nc(C(=O)N4CCNCC4)ccc3c2)nc1

**Result**
["> 20000 nM", "> 20000 nM", "> 20000 nM"]
